Please provide measured koff for the entries that follow.
- ASSAY_SYSTEM: T1, human bone morphogenic protein 4 (BMP4) (human, UniProt P12644 293-408)
- T1 construct: Bought recombinant human BMP4 (R&D Systems); also called recombinant human BMP4
- T1 sequence: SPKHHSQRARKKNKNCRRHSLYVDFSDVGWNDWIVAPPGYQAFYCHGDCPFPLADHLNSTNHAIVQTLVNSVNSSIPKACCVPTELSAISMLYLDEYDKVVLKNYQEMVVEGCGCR
- MEASUREMENT_PROTOCOL: SPR (Biacore); mAb captured via anti-human Fc, BMP flowed at 10 nM
Reply with just the number (in s⁻¹).

input: Which value of koff has been reported for 7D6 human monoclonal antibody (antibody, V domains shown, Human IgG from a HuMAb/KM mouse hybridoma) VH: QVQLVQSGAEVKKPGSSVKVSCKASGGTFSSYAISWVRQAPGQGLEWMGRIIPILGIVNYAQKFQGRVTITADKSTSTAYMELSSLRSEDTAVYYCARGKDIWGQGTMVTVSS VL: EIVLTQSPGTLSLSPGERATLSCRASQIVISTYLAWYQQKPGQAPRLLIYGASSRATGIPDRFSGSGSGTDFTLTISRLEPEDFAVYYCQQYGSSPCTFGQGTKLEIK in the records?
output: 0.0012

input: Which value of koff has been reported for 33F7 human monoclonal antibody (antibody, V domains shown, Human IgG from a HuMAb/KM mouse hybridoma) VH: QVQLVQSGAEVKKPGSSVKVSCKASGGTFSSYAINWVRQAPGQGLEWMGRLIPILGIANYAQKFQGRVTITADKSTSTAYMELSSLRSEDTAVYYCARGKDIWGQGTMVTVSS VL: EIVLTQSPGTLSLSPGERVTLSCRASQSVSSNYLAWYQQKPGQAPRLLIKGASSRATGIPDRFSGSGSGTDFTLTISRLEPEDFAVYYCQQYGSSPCTFGQGTKLEIK in the records?
output: 0.0014

input: Which value of koff has been reported for 12E3 human monoclonal antibody (antibody, V domains shown, Human IgG from a HuMAb/KM mouse hybridoma) VH: QVQLVESGGGVVQPGRSLRLSCAASGFTFSSYGMHWVRQAPGKGLEWVAVIWDDGRKKYYADSVKGRFTISRDNSKNTLYLQMNSLRAEDTAVYYCAREPAGVWGMDVWGQGTTVTVSS VL: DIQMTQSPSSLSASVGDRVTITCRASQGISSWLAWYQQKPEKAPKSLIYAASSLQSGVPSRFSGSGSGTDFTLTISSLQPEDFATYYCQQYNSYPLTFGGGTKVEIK in the records?
output: 0.000482

Measured values drawn from patent US20110182904A1 for this set.
